Give Reduction in binding affinity of inhibitory peptide relative to WT for every item shown.
- measured_on: thermostable mature transglutaminase variant (SEQ ID NO: 3) (Streptomyces mobaraensis, UniProt P81453)
- Construct: made in house; host or cells: E. coli (lysate)
- Sequence (P81453 other isoform, or with tags, fused parts or gaps): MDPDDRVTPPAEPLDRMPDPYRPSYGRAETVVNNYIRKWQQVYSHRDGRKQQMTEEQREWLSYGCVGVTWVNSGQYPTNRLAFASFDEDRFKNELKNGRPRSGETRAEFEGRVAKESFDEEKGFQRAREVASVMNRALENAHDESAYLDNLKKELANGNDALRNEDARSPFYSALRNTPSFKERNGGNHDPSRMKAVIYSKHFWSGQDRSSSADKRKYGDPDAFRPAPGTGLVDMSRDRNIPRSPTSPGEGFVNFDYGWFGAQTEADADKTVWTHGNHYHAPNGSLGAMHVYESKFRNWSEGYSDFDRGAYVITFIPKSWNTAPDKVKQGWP
- Assay type: biochemical
- condition_parameters: increase in transglutaminase activity relative to wild-type pro-peptide, casein assay; Method A
- Description: Method A. A bicistronic expression vector encoding the wild-type pro-domain of transglutaminase (SEQ ID NO: 2) and a thermostable mature transglutaminase variant (SEQ ID NO: 3) as separate polypeptides was cloned as described in PCT/US20/49226 (WO2021/178001 A1). The vector was used as a template for synthesis of a random mutagenesis library targeting the pro-domain coding sequence to create pro-domain peptide variants. […]
Where no end group is shown, it is not given here.

As a guide, the following entries are already answered.
{"sequence_entry": "MDNGAGEETKSSAETYRLTADDVANINALNESAPAASSAGPSFRAP [Variant Y12S]", "result": ">5 fold"}
{"sequence_entry": "MDNGAGEETKSYAETYR [ΔL18-P46]", "result": ">1.2 fold"}
{"sequence_entry": "MDNGAGEETDSYAETYRLTADDVANINALNESAPAASSAGPSFRAP [Variant K10D]", "result": ">1.2 fold"}
{"sequence_entry": "MDNGAGEETKSVAETYRLTADDVANINALNESAPAASSAGPSFRAP [Variant Y12V]", "result": ">1.2 fold"}
{"sequence_entry": "MDNGAGEETKSYAGTYRLTADDVANINALNESAPAASSAGPSFRAP [Variant E14G]", "result": ">1.2 fold"}
{"sequence_entry": "MDNGAGEETKSYAETYRLTADDVANINALNESAPAASPAGPSFRAP [Variant S38P]", "result": ">1.2 fold"}

Hey, can you go through the list below and give me Reduction in binding affinity of inhibitory peptide relative to WT for every item?
1. MDNGAGGETKSYAETYRLTADDVANINALNESAPAASSAGPSFRAP [Variant E7G]
2. MDNGAGEETKSYAETYRLTAD [ΔD22-P46]
3. MDNGAGEETKSYAETYRSTADDVANINALNESAPAASSAGPSFRAP [Variant L18S]

[out]
[">1.2 fold", ">1.2 fold", ">1.2 fold"]

These measurements were taken from patent US20250304927A1.
